Provide the recorded Average *EC50 [nM], PD-1/PD-L1 blockade bioassay for the entries that follow.
Target: PD-L1 on CHO cell line highly expressing PD-L1 (PD-1/PD-L1 blockade bioassay kit, promega J1250) (UniProt Q9NZQ7 19-290, limits assumed)
Sequence (Q9NZQ7 19-290 limits assumed): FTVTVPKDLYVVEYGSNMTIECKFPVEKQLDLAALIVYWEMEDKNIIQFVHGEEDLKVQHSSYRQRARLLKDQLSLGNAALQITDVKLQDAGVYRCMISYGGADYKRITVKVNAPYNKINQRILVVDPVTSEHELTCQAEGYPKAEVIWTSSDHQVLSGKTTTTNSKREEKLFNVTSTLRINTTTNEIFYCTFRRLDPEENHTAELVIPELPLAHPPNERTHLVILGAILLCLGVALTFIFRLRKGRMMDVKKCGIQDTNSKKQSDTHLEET
Assay: cell-based or functional assay
Entry rule: numbers only, all in nM.

*Q* Need Average *EC50 [nM], PD-1/PD-L1 blockade bioassay of PDL1-16E12 (LS/4E5) (antibody, V domains shown) VH: QMQLVQSGAEVKKPGSSVKVSCKASGGTFSSYAISWVRQAPGQGLEWMGRIIPILGIANYAQKFQGRVTITADKSTSTAYMELSSLRSEDTAVYYCAKPRDGYNLVAFDIWGQGTMVTVSS VL: QLVLTQPPSVSGAPGQGVTISCTGDSSNIGAGYDVHWYQQFPGTAPKLLIYENSNRPSGVPDRFSGSKSGTSASLAITGLQAEDEADYYCQSYDSRLGAVFGGGTKLTVL , thanks.
*A* 0.45

*Q* Need Average *EC50 [nM], PD-1/PD-L1 blockade bioassay of PDL1-16E12 (LS/4A10) (antibody, V domains shown) VH: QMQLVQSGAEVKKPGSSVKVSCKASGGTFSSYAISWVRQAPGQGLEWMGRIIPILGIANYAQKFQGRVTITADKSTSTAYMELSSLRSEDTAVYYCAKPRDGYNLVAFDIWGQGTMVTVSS VL: QLVLTQPPSVSGAPGQRVTISCTGSNSNIGAGYDVHWYQQLPGTAPKLLIHGNNIRPSGVPDRFSGSRSGTSASLAITGLQADDEANYFCQSYDNSLRGSVFGTGTKVTVL , thanks.
*A* 0.45

*Q* Need Average *EC50 [nM], PD-1/PD-L1 blockade bioassay of PDL1-16E12 (LS/4C9) (antibody, V domains shown, also called PD-L1-16E12-4C9) VH: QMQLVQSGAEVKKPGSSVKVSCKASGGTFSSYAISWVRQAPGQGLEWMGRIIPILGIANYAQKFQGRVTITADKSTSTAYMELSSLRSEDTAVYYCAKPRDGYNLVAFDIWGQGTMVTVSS VL: QLVLTQPPSVSGAPGQRVTISCTGGSSNIGAGYDVHWYQQLPGTAPKLLLFGNTNRPSGVPGRFSGSKSGSSASLAITGLQSDDEADYYCQSYDSSLGGSVIGTGTKVTVL , thanks.
*A* 0.39

*Q* Need Average *EC50 [nM], PD-1/PD-L1 blockade bioassay of PDL1-16E12 (LS/4H9) (antibody, V domains shown) VH: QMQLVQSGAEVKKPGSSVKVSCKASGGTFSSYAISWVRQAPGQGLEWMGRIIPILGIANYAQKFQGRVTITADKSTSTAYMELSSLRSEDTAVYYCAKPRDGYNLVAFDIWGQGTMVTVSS VL: QFVLTQPPSVSGAPGQRVTISCTGSRSNFGAGHDVHWYQQLPGTAPKLLIYGNNNRPSGVPDRFSGSKSGTSASLAIAGLQSDDEADYYCQSYDSSLSGSVFGTGTKVTVL , thanks.
*A* 0.63

*Q* Need Average *EC50 [nM], PD-1/PD-L1 blockade bioassay of PDL1-16E12 (LS/4H6) (antibody, V domains shown) VH: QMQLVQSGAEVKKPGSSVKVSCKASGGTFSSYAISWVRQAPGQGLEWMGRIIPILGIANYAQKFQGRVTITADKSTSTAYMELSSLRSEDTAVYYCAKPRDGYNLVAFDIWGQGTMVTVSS VL: QLVLTQPPSVSAAPGQTVTISCTGSSSNIGAGYDVHWYQQFPGTAPKLLIYGNNNRPSGVPDRFSGSKSGTSASLAITGLQTDDEADYFCQSYDSSLRVSSVFGTGTKVTVL , thanks.
*A* 0.51
